Kindly state Elution Volumes by Mobile Phase, PBS for each of the entries shown.
# procedure-text: HPLC elution on cholesterol-loaded Nucleosil-lecithin column
# Assay type: physicochemical
# condition-context: mobile phase PBS
Ends that are not written are not given here.
Numbers only.

Some substances with known Elution Volumes by Mobile Phase, PBS results, for comparison:
- substance: "YGSTWPG [Peptide II, NH2 Y-G-S-T-W-P-G-COOH]"
  Elution Volumes by Mobile Phase, PBS: 4.8
- substance: "YGSTWPGC [Peptide I, NH2 Y-G-S-T-W-P-G-C--COOH]"
  Elution Volumes by Mobile Phase, PBS: 7.9
- substance: "MPSWTGG [Peptide IV, NH2 M-P-S-W-T-G-G-COOH]"
  Elution Volumes by Mobile Phase, PBS: 5.0

Continue with the next substance.
query: Given the entry MPSWTGGC [Peptide III, NH2 M-P-S-W-T-G-G-C--COOH] , report its measured Elution Volumes by Mobile Phase, PBS.
result: 6.9

---

# procedure-text: HPLC elution on Nucleosil-lecithin (immobilized artificial membrane) column
# Format: physicochemical
# condition-context: mobile phase isotonic phosphate buffered saline (pH 7.34); detection 220 nm
Ends that are not written are not given here.
I'd appreciate it if you could supply Elution Volumes on Nucleosil-Lecithin, Mobile Phase PBS values for the items below.
Give bare numbers.

# count of solved cases: 3
- substance: "MPSWTGG [Peptide IV, NH2 M-P-S-W-T-G-G-COOH]"
  reading: 4.2
- substance: "YGSTWPG [Peptide II, NH2 Y-G-S-T-W-P-G-COOH]"
  reading: 7.6
- substance: "YGSTWPGC [Peptide I, NH2 Y-G-S-T-W-P-G-C--COOH]"
  reading: 13.1

# input for lookup
query: What does the data say about its Elution Volumes on Nucleosil-Lecithin, Mobile Phase PBS? Entry: MPSWTGGC [Peptide III, NH2 M-P-S-W-T-G-G-C--COOH]
result: 10.0

---

# procedure-text: HPLC elution on cholesterol-loaded Nucleosil-lecithin column
# Type: physicochemical
# condition-context: mobile phase water
Ends that are not written are not given here.
Assign Elution Volumes by Mobile Phase, H2O to each entry below.
Numbers only.

- substance: "MPSWTGGC [Peptide III, NH2 M-P-S-W-T-G-G-C--COOH]"
  Elution Volumes by Mobile Phase, H2O: 9.2
- substance: "YGSTWPG [Peptide II, NH2 Y-G-S-T-W-P-G-COOH]"
  Elution Volumes by Mobile Phase, H2O: 6.6
- substance: "YGSTWPGC [Peptide I, NH2 Y-G-S-T-W-P-G-C--COOH]"
  Elution Volumes by Mobile Phase, H2O: 7.3

query: Fill in: Elution Volumes by Mobile Phase, H2O of MPSWTGG [Peptide IV, NH2 M-P-S-W-T-G-G-COOH] is ___
result: 4.9

---

What Elution Volumes by Mobile Phase, 0.1% TFA was measured for each of the following?
# procedure-text: HPLC elution on cholesterol-loaded Nucleosil-lecithin column
# Assay type: physicochemical
# condition-context: mobile phase 0.1% TFA
Ends that are not written are not given here.

Worked examples follow.
- substance: "MPSWTGGC [Peptide III, NH2 M-P-S-W-T-G-G-C--COOH]"
  reading: 5.3
- substance: "MPSWTGG [Peptide IV, NH2 M-P-S-W-T-G-G-COOH]"
  reading: 2.9
- substance: "YGSTWPGC [Peptide I, NH2 Y-G-S-T-W-P-G-C--COOH]"
  reading: 5.3
- substance: "CGYGSTWP [Peptide V, NH2 C-G-Y-G-S-T-W-P--COOH]"
  reading: 6.6

query: Please look up its Elution Volumes by Mobile Phase, 0.1% TFA: YGSTWPG [Peptide II, NH2 Y-G-S-T-W-P-G-COOH]
result: 2.7

---

For each record, write down the corresponding Elution Volumes on Nucleosil-Lecithin, Mobile Phase 0.1% TFA.
# procedure-text: HPLC elution on Nucleosil-lecithin (immobilized artificial membrane) column
# Format: physicochemical
# condition-context: mobile phase 0.1% TFA; peptides dissolved in 0.1% aqueous TFA; detection 220 nm
Ends that are not written are not given here.
Answers are plain numbers.

- substance: "MPSWTGGC [Peptide III, NH2 M-P-S-W-T-G-G-C--COOH]"
  reading: 9.4

Would you mind listing Elution Volumes on Nucleosil-Lecithin, Mobile Phase 0.1% TFA for each of the following substances?
1. MPSWTGG [Peptide IV, NH2 M-P-S-W-T-G-G-COOH]
2. YGSTWPGC [Peptide I, NH2 Y-G-S-T-W-P-G-C--COOH]

result:
1. 4.1
2. 7.3

query: What measured Elution Volumes on Nucleosil-Lecithin, Mobile Phase 0.1% TFA goes with YGSTWPG [Peptide II, NH2 Y-G-S-T-W-P-G-COOH] ?
result: 3.1
